Tested on: P. falciparum 3D7 parasites
Experiment Notes: Metabolomic profiling of compound-treated parasites (LC/MS)
Format: cell-based
Grouping by measured Metabolite data: FAD is done with the following cut points: lower bin (below -0.2), middle bin (-0.2 to below 0.09), upper bin (0.09 or more)

Previously resolved entries follow.
INSERT INTO assay_data (compound, group) VALUES
  ('COc1cc2[nH]c(C)c(-c3ccc(Oc4ccc(OC(F)(F)F)cc4)cc3)c(=O)c2cc1Cl [ELQ-300]', 'upper bin'),
  ('CCN(CC)S(=O)(=O)c1ccc(Cl)c(C(=O)Nc2ccc3nc(C)sc3c2)c1 [MMV019721-1]', 'upper bin'),
  ('Cc1cc(Nc2ccc3ccccc3c2)n2ncnc2n1 [DSM1]', 'middle bin');

Q. Category of CCc1nc(N)nc(N)c1-c1ccc(Cl)cc1 [Pyrimethamine] , please.
A. middle bin

Q. Category of CC1(C)N=C(N)N=C(N)N1OCCCOc1cc(Cl)c(Cl)cc1Cl [WR99210] , please.
A. middle bin

Q. Category of N#Cc1cc(NC(=O)[C@H]2c3ccccc3C(=O)N(CC(F)(F)F)[C@@H]2c2cccnc2)ccc1F [SJ733] , please.
A. lower bin

Q. Category of O=C(NNC(=O)c1csnn1)c1ccc(Cl)cc1 [MMV084978-1] , please.
A. middle bin

Q. Category of C[C@H]1Cc2c([nH]c3cc(Cl)c(F)cc23)[C@@]2(N1)C(=O)Nc1ccc(Cl)cc12 [NITD609] , please.
A. lower bin
